target: CocE (Rhodococcus sp.)
Readout Kind: Ki

Problem: Returns the measured Ki for the input molecule. Input: `O[C@@H](CS)[C@@H](O)CS`
Result: ~380 µM

---

target: CocE (Rhodococcus sp., UniProt Q9L9D7)
Sequence (Q9L9D7 whole entry): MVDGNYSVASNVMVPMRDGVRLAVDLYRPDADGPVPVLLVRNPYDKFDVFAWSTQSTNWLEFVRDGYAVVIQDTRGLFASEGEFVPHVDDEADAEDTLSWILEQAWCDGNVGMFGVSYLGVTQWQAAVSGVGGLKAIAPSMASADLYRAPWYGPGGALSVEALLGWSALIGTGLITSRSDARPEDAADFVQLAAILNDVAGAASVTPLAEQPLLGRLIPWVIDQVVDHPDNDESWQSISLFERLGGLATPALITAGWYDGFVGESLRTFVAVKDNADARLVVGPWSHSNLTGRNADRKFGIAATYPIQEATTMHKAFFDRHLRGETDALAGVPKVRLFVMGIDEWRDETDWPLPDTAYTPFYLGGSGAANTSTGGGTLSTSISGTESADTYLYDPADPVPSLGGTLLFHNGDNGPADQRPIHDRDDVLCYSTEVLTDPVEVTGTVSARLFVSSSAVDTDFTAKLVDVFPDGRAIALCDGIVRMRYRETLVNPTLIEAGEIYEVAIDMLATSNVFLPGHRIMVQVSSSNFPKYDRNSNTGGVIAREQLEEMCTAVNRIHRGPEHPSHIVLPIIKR
Readout Kind: IC50

Problem: Find the recorded IC50 belonging to `O[C@@H](CS)[C@@H](O)CS` and report it.
Result: ~390 µM

---

target: CocE WT (Rhodococcus sp.); construct: 6xHis (C); experiment: Inhibition of CocE WT aggregate formation, non-denaturing gel, 1 hour at 37° C.; details: read-out: 50% stabilization concentration
Sequence (Q9L9D7 whole entry): as above
Readout Kind: EC50

Problem: Field request: EC50 | item: `OB(O)c1ccccc1`
Result: ~200 nM
